Kindly state composite z-score for each of the entries shown.
# System: Human papillomavirus type 1a E7 protein (residues 1-88)
# protocol.details: HPV1a E7 small-molecule binders, primary screen, biochemical, small-molecule microarray, residues 1-88, 635 nm (AID 1129)
# recorded.conditions: small-molecule microarray binding, fluorescence 635 nm; higher = more signal
Give a plain numeric answer without units written out.

Requested read-out composite z-score, target or system Human papillomavirus type 1a E7 protein (residues 1-88), entry `CCCC[C@@H]1C[C@H]1[C@@H](NC(=O)c1ccc(-c2ccccc2)cc1)c1ccc(-c2ccccc2)cc1`
0.481

Requested read-out composite z-score, target or system Human papillomavirus type 1a E7 protein (residues 1-88), entry `CC(C)CNC(=O)[C@@H]1c2ccccc2C(=O)N(Cc2cc(C(F)(F)F)cc(C(F)(F)F)c2)[C@H]1c1ccc(CO)cc1`
-0.569

Requested read-out composite z-score, target or system Human papillomavirus type 1a E7 protein (residues 1-88), entry CCOC(=O)C1=CCC(C(C)(C)C)N(S(=O)(=O)c2ccc(C)cc2)C1 (stereo not given)
1.26

Requested read-out composite z-score, target or system Human papillomavirus type 1a E7 protein (residues 1-88), entry `CCCN1C(=O)[C@]2(COC(c3ccc(OCCCO)cc3)=N2)Cc2ccccc21`
1.23

Requested read-out composite z-score, target or system Human papillomavirus type 1a E7 protein (residues 1-88), entry `CN(C)CCCCCCNC(=O)[C@H]1C[C@H]2C(=O)N[C@@H](CCCCN)C(=O)N2[C@H]1c1ccc(O)cc1`
1.31

Requested read-out composite z-score, target or system Human papillomavirus type 1a E7 protein (residues 1-88), entry CCCCC(O)C1C=CC2C(=O)N(C3CCCCC3)C(=O)C2N1Nc1ccc(OC)cc1 (stereo not given)
1.2

Requested read-out composite z-score, target or system Human papillomavirus type 1a E7 protein (residues 1-88), entry CC(c1ccccc1)C(O)C1C=CC2C(=O)NC(=O)C2N1Nc1ccccn1 (stereo not given)
0.997

Requested read-out composite z-score, target or system Human papillomavirus type 1a E7 protein (residues 1-88), entry COC(=O)c1ccc(OC)c(/C=C\CC(OC(C)=O)c2ccccc2)c1 (stereo not given)
0.255

Requested read-out composite z-score, target or system Human papillomavirus type 1a E7 protein (residues 1-88), entry `COc1ccc(CCN2C(=O)[C@@]3(Cc4ccccc42)c2ccccc2C(=O)N(Cc2ccccc2Cl)[C@H]3c2ccc(CO)cc2)cc1`
-1.3

Requested read-out composite z-score, target or system Human papillomavirus type 1a E7 protein (residues 1-88), entry `C=CC[C@@]1(C(=O)N2CCOCC2)N=C(c2ccc(OCCCO)cc2)O[C@@H]1c1ccccc1N=[N+]=[N-]`
1.24

Requested read-out composite z-score, target or system Human papillomavirus type 1a E7 protein (residues 1-88), entry `COCCOC(=O)N1C(=O)[C@@]2(c3ccccc31)[C@H](C(=O)NC[C@H](O)c1ccccc1)[C@H]1C(=O)O[C@H](c3ccccc3)[C@H](c3ccccc3)N1[C@@H]2c1ccc(OCCO)cc1`
1.15

Requested read-out composite z-score, target or system Human papillomavirus type 1a E7 protein (residues 1-88), entry `COCCOC(=O)N1C(=O)[C@@]2(c3cc(C#CCNC(N)=O)ccc31)[C@H](c1ccc(OCCO)cc1)N1[C@H](c3ccccc3)[C@H](c3ccccc3)OC(=O)[C@H]1[C@@H]2C(=O)N1CCc2cc(OC)c(OC)cc2C1`
0.665

Requested read-out composite z-score, target or system Human papillomavirus type 1a E7 protein (residues 1-88), entry `C=CCOC(=O)[C@@H]1[C@H]2C(=O)O[C@H](c3ccccc3)[C@H](c3ccccc3)N2[C@H](c2ccc(OCCOC(=O)[C@@H]3C[C@@H]4C(=O)NCC(=O)N4[C@@H]3c3cccc(OCCO)c3)cc2)[C@@]12C(=O)Nc1ccc(I)cc12`
1.17

Requested read-out composite z-score, target or system Human papillomavirus type 1a E7 protein (residues 1-88), entry `CCOC(=O)C1=CC[C@@H](c2ccccc2Cl)N(S(=O)(=O)c2ccc(C)cc2)C1`
1.18

Requested read-out composite z-score, target or system Human papillomavirus type 1a E7 protein (residues 1-88), entry `CC(=O)NCCCC[C@@H]1NC(=O)[C@@H]2C[C@H](C(=O)NCCCCCCNC(=O)CS)[C@H](c3ccc(O)cc3)N2C1=O`
0.964
